- systemName: UniProt:P03372
- testName: in vitro competitive binding assay (radio-ligand displacement), estradiol binding activity
- conditionSummary: Table 2, substituted monomers; displacement of radio-ligand from ERR-α; read-out: IC50
measuredMetric: IC50

### Prompt Request the reported IC50 associated with COc1cc(C(C)(C)c2ccc(O)c(OC)c2)ccc1O
### Response > 250 µM

====

Listed here: items and their measured IC50.
- systemName: (Homo sapiens)
- Sequence (P03372 whole entry): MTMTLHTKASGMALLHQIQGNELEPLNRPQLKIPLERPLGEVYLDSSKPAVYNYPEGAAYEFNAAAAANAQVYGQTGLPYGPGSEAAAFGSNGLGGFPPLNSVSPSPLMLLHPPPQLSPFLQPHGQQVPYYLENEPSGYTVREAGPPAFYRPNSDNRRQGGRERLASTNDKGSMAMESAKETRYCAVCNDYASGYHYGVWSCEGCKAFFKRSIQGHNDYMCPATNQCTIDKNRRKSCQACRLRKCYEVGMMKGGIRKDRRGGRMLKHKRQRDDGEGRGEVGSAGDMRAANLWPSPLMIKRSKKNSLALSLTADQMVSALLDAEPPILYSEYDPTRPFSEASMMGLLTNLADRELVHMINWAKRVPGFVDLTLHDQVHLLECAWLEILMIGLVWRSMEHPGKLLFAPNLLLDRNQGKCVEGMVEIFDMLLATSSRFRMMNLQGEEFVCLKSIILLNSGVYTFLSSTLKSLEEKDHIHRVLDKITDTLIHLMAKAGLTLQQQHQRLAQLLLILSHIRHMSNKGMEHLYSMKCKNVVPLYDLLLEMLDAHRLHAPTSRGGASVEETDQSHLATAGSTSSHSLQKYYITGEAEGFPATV
- testName: in vitro competitive binding assay (radio-ligand displacement), estradiol binding activity
- conditionSummary: Table 1, unsubstituted reference monomers; displacement of radio-ligand from ERR-α; read-out: IC50
# number only, unit µM dropped from output

molecule	measuredMetric	quantitativeResult
COC(=O)CCC(C)(c1ccc(O)cc1)c1ccc(O)cc1 [Reference ID 10]	IC50	18.7
Cc1cc(C2(c3ccc(O)c(C)c3)CCCCC2)ccc1O [Reference ID 2]	IC50	1.27

Please examine the following record next.
### Prompt Request the reported IC50 associated with CCC(CC)(c1ccc(O)cc1)c1ccc(O)cc1 [Reference ID 9, 4,4′-(pentane-3,3-diyl)diphenol]
### Response 0.0056

====

- systemName: (Homo sapiens)
- testName: in vitro competitive binding assay (radio-ligand displacement), estradiol binding activity
measuredMetric: pIC50
FYI, pIC50 means -log10 of a concentration in mol per litre.

### Prompt Request the reported pIC50 associated with CC(C)(c1ccc(O)cc1)c1ccc(C(C)(C)c2ccc(O)cc2)cc1 [Reference ID 7]
### Response 5.41
